Origin of the recorded values: patent US8796466B2

Test system: HCV 1b genotype
Assay: HCV Replicon assay (HCV 1b genotype)
Type: cell-based, Hepatitis C virus
Run parameters: Hepatitis C virus; HCV 1b genotype replicon; class symbol; read-out: Range (EC50 values against HCV 1b)
pEC50: −log10 of the molar value.
Observation type: pEC50

COC(=O)N[C@H](C(=O)N1[C@@H]2C[C@@H]2C[C@H]1c1ncc(-c2ccc(C#Cc3ccc4c(ccc5nc([C@@H]6C[C@H]7C[C@H]7N6C(=O)[C@@H](NC(=O)OC)C(C)C)[nH]c54)c3)cc2)[nH]1)C(C)C :: 10.00 to 11.70
COC(=O)N[C@H](C(=O)N1CCCC[C@H]1c1ncc(-c2ccc(C#Cc3ccc(-c4cnc([C@@H]5CCCCN5C(=O)[C@@H](NC(=O)OC)C(C)C)[nH]4)cc3)cc2)[nH]1)C(C)C :: 6.46 to 8.00
COC(=O)N[C@H](C(=O)N1[C@@H]2C[C@@H]2C[C@H]1c1nc(-c2ccc(C#Cc3ccc(-c4[nH]c([C@@H]5C[C@H]6C[C@H]6N5C(=O)[C@@H](NC(=O)OC)C5CCOCC5)nc4Cl)cc3)cc2)c[nH]1)C1CCOCC1 :: 10.00 to 11.70
COC(=O)N[C@H](C(=O)N1[C@@H](C)CC[C@H]1c1ncc(-c2ccc(C#Cc3ccc(-c4cnc([C@@H]5CC[C@H](C)N5C(=O)[C@@H](NC(=O)OC)C(C)C)[nH]4)cc3)cc2)[nH]1)C(C)C :: 10.00 to 11.70
COC(=O)N[C@H](C(=O)N1[C@@H]2C[C@@H]2C[C@H]1c1nc2ccc3cc(C#Cc4ccc5c(ccc6nc([C@@H]7C[C@H]8C[C@H]8N7C(=O)[C@@H](NC(=O)OC)C(C)C)[nH]c65)c4)ccc3c2[nH]1)C(C)C :: 10.00 to 11.70
COC(=O)N[C@@H](C(=O)N1CCC[C@H]1c1nc(-c2ccc(Oc3cccc(-c4c[nH]c([C@@H]5CCCN5C(=O)[C@H](NC(=O)OC)c5ccccc5)n4)c3)cc2)c[nH]1)c1ccccc1 :: 10.00 to 11.70
COC(=O)N[C@H](C(=O)N1C[C@@H](C)C[C@H]1c1ncc(-c2ccc(C#Cc3ccc(-c4cnc([C@@H]5C[C@H](C)CN5C(=O)[C@@H](NC(=O)OC)C5CCOCC5)[nH]4)cc3)cc2)[nH]1)C1CCOCC1 :: 10.00 to 11.70
CCNC(=O)N[C@@H](C(=O)N1CCC[C@H]1c1nc(-c2ccc(COCc3cccc(-c4c[nH]c([C@@H]5CCCN5C(=O)[C@H](NC(=O)NCC)c5ccccc5)n4)c3)cc2)c[nH]1)c1ccccc1 :: 10.00 to 11.70

For HCV 1b genotype, provide pEC50 of O=C(NC1CCCC1)N[C@@H](C(=O)N1CCC[C@H]1c1nc(-c2ccc(COCc3ccc(-c4cnc([C@@H]5CCCN5C(=O)[C@H](NC(=O)NC5CCCC5)c5ccccc5)[nH]4)cc3)cc2)c[nH]1)c1ccccc1 please.
8.00 to 9.00

* * *

Listed compounds paired with reported pEC50
Tested on: HCV 1b genotype
Assay: HCV Replicon assay (HCV 1b genotype)
Type: cell-based, Hepatitis C virus
Run parameters: Hepatitis C virus; HCV 1b genotype replicon; Effective 50% inhibitory concentration; read-out: 1b EC50
Scale: negative log10 of molar concentration, which is what pEC50 denotes.

COC(=O)N[C@@H](C(=O)N1CCC[C@H]1c1nc(-c2ccc(C#Cc3ccc(-c4c[nH]c([C@@H]5CCCN5C(=O)[C@H](NC(=O)OC)c5ccccc5)n4)cc3)cc2)c[nH]1)c1ccccc1 :: 9.62
O=C([C@H](O)c1ccccc1)N1CCC[C@H]1c1nc(-c2ccc(Oc3cccc(-c4c[nH]c([C@@H]5CCCN5C(=O)[C@H](O)c5ccccc5)n4)c3)cc2)c[nH]1 :: 7.10
CN(C)[C@@H](C(=O)N1CCC[C@H]1c1ncc(-c2ccc(Oc3cccc(-c4cnc([C@@H]5CCCN5C(=O)[C@@H](c5ccccc5)N(C)C)[nH]4)c3)cc2)[nH]1)c1ccccc1 :: 10.15
O=C([C@H](O)c1ccccc1)N1CCC[C@H]1c1nc(-c2ccc(Oc3ccc(-c4cnc([C@@H]5CCCN5C(=O)[C@H](O)c5ccccc5)[nH]4)cc3)cc2)c[nH]1 :: 8.04
COC(=O)N[C@H](C(=O)N1CCC[C@H]1c1ncc(-c2ccc(C#Cc3ccc4c(c3)CCc3nc([C@@H]5CCCN5C(=O)[C@@H](NC(=O)OC)C(C)C)[nH]c3-4)cc2)[nH]1)C(C)C :: 11.22
O=C([C@H](O)c1ccccc1)N1CCC[C@H]1c1nc(-c2ccc(COCc3ccc(-c4cnc([C@@H]5CCCN5C(=O)[C@H](O)c5ccccc5)[nH]4)cc3)cc2)c[nH]1 :: 8.96
COC(=O)N[C@H](C(=O)N1[C@@H]2C[C@@H]2C[C@H]1c1nc(-c2ccc(C#Cc3ccc(-c4c[nH]c([C@@H]5C[C@H]6C[C@H]6N5C(=O)[C@@H](NC(=O)OC)C5CCOCC5)n4)cc3)cc2)c[nH]1)C1CCOCC1 :: 11.48
COC(=O)N[C@@H](C(=O)N1CC(F)(F)C[C@H]1c1ncc(-c2ccc(C#Cc3ccc(-c4cnc([C@@H]5CC(F)(F)CN5C(=O)[C@H](NC(=O)OC)C5CCOCC5)[nH]4)cc3)cc2)[nH]1)C1CCOCC1 :: 9.74
COC(=O)N[C@H](C(=O)N1CCC[C@H]1c1ncc(-c2cccc(C#Cc3cccc(-c4cnc([C@@H]5CCCN5C(=O)[C@@H](NC(=O)OC)C5CCOCC5)[nH]4)c3)c2)[nH]1)C1CCOCC1 :: 9.92
COC(=O)N[C@H](C(=O)N1C[C@@H](C)C[C@H]1c1nc(Cl)c(-c2ccc(C#Cc3ccc(-c4[nH]c([C@@H]5C[C@H](C)CN5C(=O)[C@@H](NC(=O)OC)C5CCOCC5)nc4Cl)cc3)cc2)[nH]1)C1CCOCC1 :: 10.21

Let's switch to this compound now.
Any idea what pEC50 was measured for COC(=O)N[C@H](C(=O)N1CC(F)(F)C[C@H]1c1ncc(-c2ccc(C#Cc3ccc(-c4cnc([C@@H]5CC(F)(F)CN5C(=O)[C@H](NC(=O)OC)C5CCOCC5)[nH]4)cc3)cc2)[nH]1)C1CCOCC1 ?
9.60
